# test system: T1, Human ANGPTL4(26-406)-FLAG-His6-Avi (human, UniProt Q9BY76 24-406, biotin on the C-terminal Avi tag in the biotinylated preparations (immobilised form in SET, ELISA and Octet))
# T1 sequence: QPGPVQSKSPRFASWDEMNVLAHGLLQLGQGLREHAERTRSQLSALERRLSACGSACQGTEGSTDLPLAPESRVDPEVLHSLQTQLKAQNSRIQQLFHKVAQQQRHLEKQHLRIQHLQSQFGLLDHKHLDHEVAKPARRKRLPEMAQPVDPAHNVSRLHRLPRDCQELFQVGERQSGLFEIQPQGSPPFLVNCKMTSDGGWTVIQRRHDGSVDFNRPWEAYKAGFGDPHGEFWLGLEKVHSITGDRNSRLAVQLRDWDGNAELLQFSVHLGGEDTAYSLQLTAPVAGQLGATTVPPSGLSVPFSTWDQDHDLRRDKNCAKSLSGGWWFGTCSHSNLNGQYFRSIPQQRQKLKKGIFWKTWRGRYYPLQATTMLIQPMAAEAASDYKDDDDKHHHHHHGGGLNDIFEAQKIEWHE
# protocol summary: cell-based or functional assay
Below, each of the binders is paired with its reported Reversal of human ANGPTL4 inhibition of human LPL EC50 value.
Output spec: scalar in nM, unitless text.

{"binder": "MOR021830 (antibody, human IgG1, kappa, V domains shown, human IgG1) VH: QVQLLESGGGLVQPGGSLRLSCAASGFTFSSYWMHWVRQAPGKGLEWVSGISYDGSSTNYADSVKGRFTISRDNSKNTLYLQMNSLRAEDTAVYYCARDSYIYDLHWGFDNWGQGTLVTVSS VL: DIQMTQSPSSLSASVGDRVTITCRASQDISSYLNWYQQKPGKAPKLLIYAASRLQSGVPSRFSGSGSGTDFTLTISSLQPEDFATYYCQQSYTHPYTFGQGTKVEIKR", "observed result": 4}
{"binder": "MOR021795 (antibody, human IgG1, lambda, V domains shown, human IgG1) VH: QVQLVQSGAEVKKPGSSVKVSCKASGGTFNSYAISWVRQAPGQGLEWMGGIIPLFGFANYAQKFQGRVTITADESTSTAYMELSSLRSEDTAVYYCARESYDPYAFDVWGQGTLVTVSS VL: DIELTQPPSVSVSPGQTASITCSGDNLGKYSASWYQQKPGQAPVLVIHQDNNRPSGIPERFSGSNSGNTATLTISGTQAEDEADYYCASRAHSMHVVFGGGTKLTVLG", "observed result": 12}

Lookup: Field request: Reversal of human ANGPTL4 inhibition of human LPL EC50 | item: MOR021798 (antibody, human IgG1, lambda, V domains shown, human IgG1) VH: QVQLLESGGGLVQPGGSLRLSCAASGFTFSDYALHWVRQAPGKGLEWVSRISYMGSSTYYADSVKGRFTISRDNSKNTLYLQMNSLRAEDTAVYYCAREHYYSSPMGGVAVDNWGQGTLVTVSS VL: DIVLTQPPSVSGAPGQRVTISCSGSSSNIGYNTVSWYQQLPGTAPKLLIYSNNIRPSGVPDRFSGSKSGTSASLAITGLQAEDEADYYCSSWDFLIKSLVFGGGTKLTVLG
Found: 2

These entries and their values trace back to patent US20160108110A1.
